// reported Kd for each item listed
Target: T1, recombinant human IL-36R extracellular domain expressed with a C-terminal myc-myc-hexahistidine tag (human, UniProt Q9HB29 20-337)
T1 construct: also called hIL-36R-MMH; hIL-36R.mmH
T1 sequence (Q9HB29 other isoform, or with tags, fused parts or gaps limits assumed): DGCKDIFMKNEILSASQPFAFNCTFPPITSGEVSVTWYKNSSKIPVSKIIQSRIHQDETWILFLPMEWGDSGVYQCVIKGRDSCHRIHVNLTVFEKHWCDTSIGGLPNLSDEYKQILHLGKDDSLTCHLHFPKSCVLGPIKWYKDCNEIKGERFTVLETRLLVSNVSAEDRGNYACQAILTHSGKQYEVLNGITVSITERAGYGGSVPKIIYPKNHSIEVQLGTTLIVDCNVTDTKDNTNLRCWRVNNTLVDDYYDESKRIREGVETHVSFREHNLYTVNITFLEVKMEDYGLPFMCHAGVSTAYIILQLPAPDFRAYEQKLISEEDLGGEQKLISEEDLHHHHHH
Experiment: SPR (Biacore 4000), mAb captured on anti-human Fc, 25°C
Please give the number followed by its unit.

binder: H4H14706P2 (antibody, human IgG4 S228P, kappa, V domains shown) VH: EVQLVESGGGLVQPGRSLRLSCTASGFTFDDYAIHWVRQSPGKGLEWVSVISWNSDVIGYADSVKGRFTISRDNAKNSLYLQMNSLRAEDTALYYCAKGYNWNFFDYWGQGTLVTVSS VL: EIVLTQSPATLSLSPGERATLSCRASQSVSSYLAWYQQKPGQAPRLLIYNAANRATDIPARFSGSGSGTDFTLTISSLEPEDFAVYYCQQRSNWPLTFGGGTKVEIKR
Kd: 4.08 nM
--
binder: H4H14700P2 (antibody, human IgG4 S228P, kappa, V domains shown) VH: EVQLVESGGGLVQPGRSLRLSCAASGFTFDDYAMHWVRQTPGKGLEWVSVISWNSDVIAYSDSVKGRFTISRDNAKNSLYLQMNSLGTEDTALYYCAKGHNWNFFDYWGQGTLVTVSS VL: EIVLTQSPATLSLSPGERATLSCRASQSVSSYLAWYQQKPGQAPRLLIYNVANRATDIPARFSGSGSGTDFTLTISGLEPEDFAVYFCQQRSNWPLTFGGGTKVEIKR
Kd: 4.82 nM

Now examine the next entry.
H4H14728P (antibody, human IgG4 S228P, kappa, V domains shown) VH: QVQLQESGPGLVKPSQTLSLTCTVSGGSISSADYYWSWIRQHPGKGLEWIGSIYYTGSTYYNPSLKSRLTISIDTSENQFSLKLTSLTAADTAVYYCASEEANWGSHFDSWGQGTLVTVSS VL: DIQMTQSPSSLSASVGDRVTITCRASQSIDNFLNWYQQKPGKAPKLLIYAASSLQSGVPSRFSGSGSGTDFTLTISSLQPEDFASYYCQHSHSAHPITFGQGTRLEIKR has a reported Kd of 7.87 nM
